Kindly state pEC50 for each of the entries shown.
# tested-system: GlunN1/GluN2A glutamate receptors (Homo sapiens (Human), UniProt Q05586+Q12879)
# Sequence (Q12879 23-1464, other chains not shown): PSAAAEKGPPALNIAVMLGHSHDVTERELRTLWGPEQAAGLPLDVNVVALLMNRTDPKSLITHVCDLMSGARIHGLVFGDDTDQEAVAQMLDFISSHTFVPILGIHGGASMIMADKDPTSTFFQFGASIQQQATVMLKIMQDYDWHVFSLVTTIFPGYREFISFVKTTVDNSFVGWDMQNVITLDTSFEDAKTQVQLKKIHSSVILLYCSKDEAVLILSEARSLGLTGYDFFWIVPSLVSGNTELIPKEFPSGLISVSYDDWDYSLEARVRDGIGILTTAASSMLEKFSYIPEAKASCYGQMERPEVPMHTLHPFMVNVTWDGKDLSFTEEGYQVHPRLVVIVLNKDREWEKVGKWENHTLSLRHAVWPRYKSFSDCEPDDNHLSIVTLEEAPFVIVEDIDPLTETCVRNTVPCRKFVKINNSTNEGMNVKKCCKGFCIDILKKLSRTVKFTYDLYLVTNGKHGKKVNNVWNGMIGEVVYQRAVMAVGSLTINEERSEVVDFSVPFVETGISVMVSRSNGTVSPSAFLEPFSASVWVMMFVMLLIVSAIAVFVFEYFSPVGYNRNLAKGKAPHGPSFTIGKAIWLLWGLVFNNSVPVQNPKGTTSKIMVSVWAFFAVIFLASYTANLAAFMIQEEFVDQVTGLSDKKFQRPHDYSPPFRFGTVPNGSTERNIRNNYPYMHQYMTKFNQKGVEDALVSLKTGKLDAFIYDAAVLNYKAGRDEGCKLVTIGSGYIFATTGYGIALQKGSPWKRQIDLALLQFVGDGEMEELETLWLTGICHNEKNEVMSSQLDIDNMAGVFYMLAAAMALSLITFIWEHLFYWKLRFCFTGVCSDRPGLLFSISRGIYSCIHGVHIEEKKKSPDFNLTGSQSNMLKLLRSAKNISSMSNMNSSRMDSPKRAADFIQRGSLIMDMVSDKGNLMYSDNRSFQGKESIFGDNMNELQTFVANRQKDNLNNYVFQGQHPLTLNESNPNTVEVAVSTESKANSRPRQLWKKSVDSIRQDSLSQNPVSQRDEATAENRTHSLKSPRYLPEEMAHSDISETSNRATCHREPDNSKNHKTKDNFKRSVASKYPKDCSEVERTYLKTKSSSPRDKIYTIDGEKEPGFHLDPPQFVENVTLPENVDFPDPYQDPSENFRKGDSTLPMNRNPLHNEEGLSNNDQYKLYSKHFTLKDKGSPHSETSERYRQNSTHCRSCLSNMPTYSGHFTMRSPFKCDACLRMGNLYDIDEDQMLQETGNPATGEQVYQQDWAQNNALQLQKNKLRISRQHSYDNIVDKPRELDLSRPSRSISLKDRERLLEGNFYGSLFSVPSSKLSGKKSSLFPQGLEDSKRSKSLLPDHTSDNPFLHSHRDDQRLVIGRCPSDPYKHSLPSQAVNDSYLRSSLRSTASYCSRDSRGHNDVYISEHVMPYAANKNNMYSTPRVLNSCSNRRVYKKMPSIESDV
# run-description: Whole-cell patch clamp of mammalian cells (Ionworks Barracuda), positive allosteric modulation, GluN1/GluN2A
# Format: cell-based
The quantity pEC50 is defined as the negative base-10 logarithm of the molar concentration.

Checklist item: pEC50 tested on GlunN1/GluN2A glutamate receptors (Homo sapiens (Human), UniProt Q05586+Q12879), entry "C[C@H](CC[C@H](O)C(C)(C)C)[C@H]1CC[C@H]2[C@@H]3CC[C@@H]4C[C@](O)(C(F)(F)F)CC[C@]4(C)[C@H]3CC[C@]12C" , value?
6.37

Checklist item: pEC50 tested on GlunN1/GluN2A glutamate receptors (Homo sapiens (Human), UniProt Q05586+Q12879), entry "C[C@H](CC[C@H](O)C1CCCCC1)[C@H]1CC[C@H]2[C@@H]3CC[C@H]4C[C@](O)(C(F)(F)F)CC[C@]4(C)[C@H]3CC[C@]12C" , value?
6.35

Checklist item: pEC50 tested on GlunN1/GluN2A glutamate receptors (Homo sapiens (Human), UniProt Q05586+Q12879), entry CC[C@]1(O)CC[C@H]2[C@@H](CC[C@@H]3[C@@H]2CC[C@]2(C)[C@@H]([C@H](C)CCC(O)C(C)C)CC[C@@H]32)C1 (some centres unmarked) , value?
6.39

Checklist item: pEC50 tested on GlunN1/GluN2A glutamate receptors (Homo sapiens (Human), UniProt Q05586+Q12879), entry "CC(C)[C@H](O)CCC[C@@H](C)[C@H]1CC[C@H]2[C@@H]3CC[C@H]4C[C@](O)(C(F)(F)F)CC[C@]4(C)[C@H]3CC[C@]12C" , value?
6.83
